Reported ED50 values for the following molecules.
- Species on record: Mus musculus
- assayInfo: Antagonistic activity against tetrabenazine-induced ptosis in mice.
- Format: functional
- runParameters: Mus musculus; read-out: ED50
Provide the reading as a plain figure in µmol/kg.

>>> df
                                   molecule  valuereported
0  CN(C)C1CC(c2ccc(F)c(F)c2)c2ccccc21 (centres undefined)            7.1
1  CNC1CC(c2ccc(C(F)(F)F)cc2)c2ccccc21 (centres undefined)             58

Data request: Could you share which ED50 value was measured for CNC1CC(c2ccc(Br)cc2)c2ccccc21 (stereo in doubt; 36) ?
Data returned: 47

Data request: How about this molecule: CNCCCC1(c2ccccc2)SC(C)(C)c2ccccc21 (centres undefined)
Data returned: 2.3

Data request: What do we get for CN(C)C1CC(c2ccc(Cl)cc2)c2ccccc21 (stereo in doubt; 63) ?
Data returned: 43

Data request: // repeat for CN(C)C1CC(c2ccc(Cl)cc2Cl)c2ccccc21 (stereo in doubt; 75) and report
Data returned: 23

Data request: And CN(C)C1CC(c2ccc(F)cc2)c2ccc(C(F)(F)F)cc21 (stereo in doubt; 57) ?
Data returned: 116

---

- testedOn: Norepinephrine transporter (Rattus norvegicus, UniProt Q9WTR4)
- Sequence (Q9WTR4 whole entry): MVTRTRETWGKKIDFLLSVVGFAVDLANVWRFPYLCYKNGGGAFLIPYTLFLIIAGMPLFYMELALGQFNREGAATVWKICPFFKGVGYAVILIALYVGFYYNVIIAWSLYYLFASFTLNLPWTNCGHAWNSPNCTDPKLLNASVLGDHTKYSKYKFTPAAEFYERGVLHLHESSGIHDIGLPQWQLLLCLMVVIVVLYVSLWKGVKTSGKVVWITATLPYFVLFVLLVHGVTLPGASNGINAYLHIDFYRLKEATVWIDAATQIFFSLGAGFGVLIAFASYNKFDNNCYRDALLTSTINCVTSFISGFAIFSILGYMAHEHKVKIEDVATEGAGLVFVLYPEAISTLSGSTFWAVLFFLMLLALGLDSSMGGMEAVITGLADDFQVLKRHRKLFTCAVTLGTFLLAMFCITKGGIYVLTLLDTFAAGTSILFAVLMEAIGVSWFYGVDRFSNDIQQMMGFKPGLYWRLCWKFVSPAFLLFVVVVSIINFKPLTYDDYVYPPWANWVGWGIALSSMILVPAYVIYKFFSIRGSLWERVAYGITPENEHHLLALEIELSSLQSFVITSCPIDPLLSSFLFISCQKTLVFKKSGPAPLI
- assayInfo: Inhibition of noradrenaline uptake in rat synaptosomal fraction
pIC50: −log10 of the molar value.
I would appreciate it if you labelled entries Criterion met when pIC50 is 8 or higher, otherwise Criterion not met.

>>> df
                                   molecule                                  testedon     classification
0  CN(C)C1CC(c2ccc(F)cc2)c2ccc(C(F)(F)F)cc21.Cl (stereo in doubt; 82)  Norepinephrine transporter (Rattus norvegicus, UniProt Q9WTR4)  Criterion not met

Data request: Answer whether pIC50 of CN(C)C1CC(c2ccc(Cl)c(Cl)c2)c2ccccc21.Cl (stereo not given) is greater than or equal to 8.
Data returned: Criterion met

Data request: Param item: CN(C)C1CC(c2ccccc2)c2ccccc21.Cl (stereo in doubt; 59)
Data returned: Criterion not met

Data request: Also CN(C)C1CC(c2ccc(Cl)c(Cl)c2)c2ccc(F)cc21 (stereo in doubt; 51) ?
Data returned: Criterion not met

Data request: And for CNC1CC(c2ccc(Cl)cc2)c2ccccc21.Cl (stereo not given) ?
Data returned: Criterion not met

Data request: Similarly, CNC1CC(c2ccc(Cl)c(Cl)c2)c2ccc(OC)cc21 (stereo not given) ?
Data returned: Criterion met

Data request: Same read-out for CCCN(CCC)C1CC(c2ccc(Cl)c(Cl)c2)c2ccccc21.Cl (stereo in doubt; 89) ?
Data returned: Criterion not met

Data request: What do we get for CNC1CC(c2ccc(Cl)c(Cl)c2)c2ccc(OC)cc21.Cl (stereo not given) ?
Data returned: Criterion not met

Data request: Now consider CCNC1CC(c2ccc(Cl)c(Cl)c2)c2ccccc21.Cl (stereo in doubt; 84) and answer again.
Data returned: Criterion not met

Data request: Input CNC1CC(c2ccc(F)cc2)c2ccccc21.Cl (stereo in doubt; 60)
Data returned: Criterion not met

Data request: What do you have for CN(C)C1CC(c2ccc(F)cc2)c2ccccc21.Cl (stereo in doubt; 61) ?
Data returned: Criterion not met

Data request: One more molecule: CN(C)C1CC(c2ccccc2)c2ccccc21.Cl (stereo in doubt; 31)
Data returned: Criterion not met

Data request: Cool, now CNC1CC(c2ccc(F)c(F)c2)c2ccccc21.Cl (stereo in doubt; 41)
Data returned: Criterion met

Data request: CN(C)C1CC(c2ccc(F)cc2)c2ccc(F)cc21 (stereo not given) , same question.
Data returned: Criterion not met

---

- testedOn: UniProtKB P23977
- assayInfo: Inhibition of dopamine uptake in rat synaptosomal fraction
- Assay type: functional
Measured pIC50 of individual entries
Scale: pIC50 equals -log10([C]), with [C] in mol/L.

>>> df
                                   compound          testedon  valuereported
0  CCNC1CC(c2ccc(Cl)c(Cl)c2)c2ccccc21.Cl (stereo in doubt; 83)  UniProtKB P23977           8.82

# next compound below
Data request: Item CNC1CC(c2ccc(Cl)cc2Cl)c2ccccc21.Cl (stereo in doubt; 48) has what recorded pIC50?
Data returned: 6.29

---

Entries and their measured pIC50 follow.
- testedOn: Norepinephrine transporter (Rattus norvegicus)
- assayInfo: Inhibition of noradrenaline uptake in rat synaptosomal fraction
Please keep in mind that pIC50 is minus log10 of the molar concentration; only the number is needed.

// solved cases for pIC50 follow
                                   compound                                  testedon  valuereported
0  CN(C)C1CC(c2ccc(Cl)c(Cl)c2)c2ccccc21 (configuration not stated)  Norepinephrine transporter (Rattus norvegicus)           7.62
1  CNCCCC1(c2ccccc2)SC(C)(C)c2ccccc21 (configuration not stated)  Norepinephrine transporter (Rattus norvegicus)           9.10
2  CNC1CC(c2ccc(Cl)c(Cl)c2)c2ccc(O)cc21 (stereo in doubt; 80)  Norepinephrine transporter (Rattus norvegicus)           8.20
3  Clc1ccc(C2CC(N3CCCCC3)c3ccccc32)cc1Cl (stereo in doubt; 100)  Norepinephrine transporter (Rattus norvegicus)           7.10
4  CNC1CC(c2ccc(C(F)(F)F)cc2)c2ccccc21 (configuration not stated)  Norepinephrine transporter (Rattus norvegicus)           7.17

Data request: So what does the record say about pIC50 for CN(C)C1CC(c2ccc(F)cc2)c2ccccc21.Cl (stereo in doubt; 33) ?
Data returned: 7.00

Data request: Quick one: CNC1CC(c2ccc(Br)cc2)c2ccccc21 (stereo in doubt; 36)
Data returned: 9.52

---

- testedOn: Norepinephrine transporter (Rattus norvegicus, UniProt Q9WTR4)
- assayInfo: Inhibition of noradrenaline uptake in rat synaptosomal fraction
pIC50: −log10 of the molar value.
Entry class follows pIC50: low: < 8; moderate: ≥ 8 and < 9; high: ≥ 9

Known results for compounds:
>>> df
                                   compound  classification
0  CNC1CC(c2ccc(Cl)cc2)c2ccccc21 (centres undefined)            high
1  CN(C)C1CC(c2ccc(Cl)c(Cl)c2)c2ccc(F)cc21 (stereo in doubt; 77)        moderate
2  CN(C)C1CC(c2ccc(Cl)cc2Cl)c2ccccc21 (stereo in doubt; 75)             low
3  CNC1CC(c2ccc(Cl)c(C(F)(F)F)c2)c2ccccc21 (centres undefined)             low

Next:
Data request: # bin label for CCNC1CC(c2ccc(Cl)c(Cl)c2)c2ccccc21.Cl (stereo in doubt; 83)
Data returned: high

---

- testedOn: Sodium-dependent dopamine transporter (Rattus norvegicus, UniProt P23977)
- Sequence (P23977 whole entry): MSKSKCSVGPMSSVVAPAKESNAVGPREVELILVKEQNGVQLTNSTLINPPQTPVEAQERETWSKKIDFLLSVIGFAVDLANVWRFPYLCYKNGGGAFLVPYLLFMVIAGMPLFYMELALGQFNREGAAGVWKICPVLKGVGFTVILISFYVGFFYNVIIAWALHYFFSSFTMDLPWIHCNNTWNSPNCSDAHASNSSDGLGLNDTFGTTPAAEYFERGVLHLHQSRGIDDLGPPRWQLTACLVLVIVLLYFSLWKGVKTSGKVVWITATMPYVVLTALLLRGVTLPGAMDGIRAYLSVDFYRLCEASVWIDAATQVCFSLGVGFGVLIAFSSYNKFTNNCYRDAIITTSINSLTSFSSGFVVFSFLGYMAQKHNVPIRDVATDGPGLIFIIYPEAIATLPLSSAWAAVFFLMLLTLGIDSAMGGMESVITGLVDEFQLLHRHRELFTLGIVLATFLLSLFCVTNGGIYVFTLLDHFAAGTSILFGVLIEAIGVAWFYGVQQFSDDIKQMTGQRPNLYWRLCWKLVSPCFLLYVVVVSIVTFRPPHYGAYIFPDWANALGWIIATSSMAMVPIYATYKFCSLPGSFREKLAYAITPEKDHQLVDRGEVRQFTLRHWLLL
- assayInfo: Inhibition of dopamine uptake in rat synaptosomal fraction
readout: log10 of IC50 (log10 of the value in nM)
Please note: log10 values; quantity IC50; unit nM.

Data request: Look up log10 of IC50: CNC1CC(c2ccc(C(F)(F)F)cc2)c2ccccc21 (stereo unspecified)
Data returned: 2.20

Data request: Queued: CN(C)C1CC(c2ccc(Cl)c(Cl)c2)c2ccccc21 (stereo unspecified)
Data returned: 1.45

---

# ED50 per record follows
- Organism: Mus musculus
- assayInfo: Antagonistic activity against 5-HTP induced potentiation in mice
- Type: functional
Your answer is read as µmol/kg, so omit the unit and give the number.

                                   compound  valuereported
0  CN(C)C1CC(c2ccc(Br)cc2)c2ccccc21 (stereo in doubt; 37)            8.4

Data request: # input compound: CCN(CC)C1CC(c2ccc(Cl)c(Cl)c2)c2ccccc21 (stereo in doubt; 86) ; wanted: its ED50
Data returned: 204

Data request: Note, next up: CNC1CC(c2cccc(Cl)c2)c2ccccc21 (stereo in doubt; 66)
Data returned: 124

Data request: Moving on to CCNC1CC(c2ccc(Cl)c(Cl)c2)c2ccccc21 (stereo in doubt; 83)
Data returned: 26

---

List of ED50 values.
- Species: Mus musculus
- assayInfo: Antagonistic activity against 5-HTP induced potentiation in mice
- Assay type: functional
Please give a number only; it is taken to be in µmol/kg.

Illustrative cases are given below, each with its answer.
>>> print(df.to_string())
                                   compound  readout  unitabbrev  valuereported
0  CN(C)C1CC(c2ccc(Cl)c(Cl)c2)c2ccc(F)cc21 (stereo in doubt; 77)     ED50     µmol/kg             29
1  CNC1CC(c2cccc(Cl)c2)c2ccccc21 (stereo in doubt; 39)     ED50     µmol/kg             92
2  CNC1CC(c2ccc(F)cc2)c2ccccc21 (stereo in doubt; 60)     ED50     µmol/kg             72

Data request: Form field: reported ED50 of CNC1CC(c2ccc(Cl)c(Cl)c2)c2ccc(F)cc21 (stereo in doubt; 50)
Data returned: 27

Data request: One more compound: CN(C)C1CC(c2ccc(F)cc2)c2ccccc21 (stereo in doubt; 33)
Data returned: 45

Data request: Also CNC1CC(c2ccc(F)c(Cl)c2)c2ccccc21 (stereo in doubt; 70) , if possible.
Data returned: 30

Data request: Lookup CN(C)C1CC(c2ccc(F)cc2)c2ccc(C(F)(F)F)cc21 (stereo in doubt; 57)
Data returned: 123
